B1: ACSBG2 (parent)
chain: FAQADALKGTLVSTLKEVKPTVFI

# Variants of: B1
# PROTOCOL_NOTES: protein stability index of a GFP-peptide fusion (GPS, HEK-293T) (PSI 1-6); higher = more stable;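 note: lentivirally expressed fusions sorted by FACS into six bins by GFP to DsRed ratio, PSI derived from sequencing read proportions per bin multiplied by bin number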
# MEASUREMENT_PARAMETERS: c terminus: a fixed tail appended
# if value of protein stability index reaches 2, tag true; if it stays below, tag false

Confirm if protein stability index reported for the variant FAQADALKGTLVSTLWEVKPTVFI [K16W] is 2 or above.
true

Confirm if protein stability index reported for the variant FACADALKGTLVSTLKEVKPTVFI [Q3C] is 2 or above.
false

Confirm if protein stability index reported for the variant FAVADALKGTLVSTLKEVKPTVFI [Q3V] is 2 or above.
true

Confirm if protein stability index reported for the variant FAQADALKGTRVSTLKEVKPTVFI [L11R] is 2 or above.
true

Confirm if protein stability index reported for the variant FAQADALKGTLVSTLVEVKPTVFI [K16V] is 2 or above.
true

Confirm if protein stability index reported for the variant FAQADALKGTLVSTLREVKPTVFI [K16R] is 2 or above.
false

Confirm if protein stability index reported for the variant FAQADALKGTLVSTLDEVKPTVFI [K16D] is 2 or above.
false

Confirm if protein stability index reported for the variant FAQADALKGTFVSTLKEVKPTVFI [L11F] is 2 or above.
false

Confirm if protein stability index reported for the variant FAQADSLKGTLVSTLKEVKPTVFI [A6S] is 2 or above.
true

Confirm if protein stability index reported for the variant FAQARALKGTLVSTLKEVKPTVFI [D5R] is 2 or above.
false

Confirm if protein stability index reported for the variant FAQADALKGTLVITLKEVKPTVFI [S13I] is 2 or above.
true

Confirm if protein stability index reported for the variant FAQADALKGILVSTLKEVKPTVFI [T10I] is 2 or above.
true

Confirm if protein stability index reported for the variant FAQADARKGTLVSTLKEVKPTVFI [L7R] is 2 or above.
true

Confirm if protein stability index reported for the variant FAQADALKGQLVSTLKEVKPTVFI [T10Q] is 2 or above.
false

Confirm if protein stability index reported for the variant FAEADALKGTLVSTLKEVKPTVFI [Q3E] is 2 or above.
false

Confirm if protein stability index reported for the variant FAQADALKGTLVSTLKEEKPTVFI [V18E] is 2 or above.
true

Confirm if protein stability index reported for the variant FAQADALKGTLVSTLKEVKPTVHI [F23H] is 2 or above.
false
